- TARGET OR TEST SYSTEM: T1, human GIPR (human, UniProt P48546 22-466)
- T1 sequence (looked up): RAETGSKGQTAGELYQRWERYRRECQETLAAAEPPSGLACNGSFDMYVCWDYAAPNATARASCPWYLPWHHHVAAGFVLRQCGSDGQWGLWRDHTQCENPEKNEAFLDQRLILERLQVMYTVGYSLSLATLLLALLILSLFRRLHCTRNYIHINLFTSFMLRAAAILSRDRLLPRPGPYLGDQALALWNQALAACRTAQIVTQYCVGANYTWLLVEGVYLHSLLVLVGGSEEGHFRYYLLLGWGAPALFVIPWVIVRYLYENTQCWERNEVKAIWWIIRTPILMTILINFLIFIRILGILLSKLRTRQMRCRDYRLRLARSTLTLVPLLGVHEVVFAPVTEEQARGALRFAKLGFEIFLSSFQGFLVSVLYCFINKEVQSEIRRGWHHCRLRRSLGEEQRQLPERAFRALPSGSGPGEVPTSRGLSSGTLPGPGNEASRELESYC
- METHOD: cell-based or functional assay
Bridge positions count the residues as written; N and C are the ends. Square brackets hold non-standard residues; d marks the D form. Ends that are not written are not given here. C20L5A staple = not defined here; L5A = not defined here; Aib = CC(C)(N)C(=O)O
PARAMETER: EC50 of receptor-mediated cAMP synthesis
Value and unit, in that order.

Solved entries (count: 3):
Problem: Which EC50 of receptor-mediated cAMP synthesis reading was recorded for the binder YXEGTFTSDYSIYKDKQAAXKFVNWLLAGGPSSGAPPPS (Aib at positions 2 and 20; C-terminal amide (NH2); staple K4 attached at Lys14 and Lys21) [mCMD307 (2050-K4)] ?
Solution: 0.01 nM

Problem: Which EC50 of receptor-mediated cAMP synthesis reading was recorded for the binder Y[Aib]EGTFTSDYSIYCDKQAA[Aib]CFVNWLLAGGPSSGAPPPS-NH2 (linker 14-21 via C20L5A staple; reading uncertain) [C(14-21)-C20L5A] ?
Solution: 0.05 nM

Problem: Which EC50 of receptor-mediated cAMP synthesis reading was recorded for the binder YXEGTFTSDYSIYCDKQAAXCFVNWLLAGGPSSGAPPPS (Aib at positions 2 and 20; C-terminal amide (NH2); staple L5A attached at Cys14 and Cys21) [mCMC759 (C(14-21)-L5A)] ?
Solution: 0.03 nM

More entries:
Problem: Which EC50 of receptor-mediated cAMP synthesis reading was recorded for the binder Y[Aib]EGTFTSDYSIYCDKQAA[Aib]CFVNWLIAGGPSSGAPPPS-NH2 (linker 14-21 via L5A; reading uncertain) [27I, C(14-21)-L5A] ?
Solution: 0.03 nM

Values were extracted from patent US20240148884A1.
